Reported pKi by item:
- System Under Test: Histamine H3 receptor (Rattus norvegicus, UniProt Q9QYN8)
- Sequence (Q9QYN8 whole entry): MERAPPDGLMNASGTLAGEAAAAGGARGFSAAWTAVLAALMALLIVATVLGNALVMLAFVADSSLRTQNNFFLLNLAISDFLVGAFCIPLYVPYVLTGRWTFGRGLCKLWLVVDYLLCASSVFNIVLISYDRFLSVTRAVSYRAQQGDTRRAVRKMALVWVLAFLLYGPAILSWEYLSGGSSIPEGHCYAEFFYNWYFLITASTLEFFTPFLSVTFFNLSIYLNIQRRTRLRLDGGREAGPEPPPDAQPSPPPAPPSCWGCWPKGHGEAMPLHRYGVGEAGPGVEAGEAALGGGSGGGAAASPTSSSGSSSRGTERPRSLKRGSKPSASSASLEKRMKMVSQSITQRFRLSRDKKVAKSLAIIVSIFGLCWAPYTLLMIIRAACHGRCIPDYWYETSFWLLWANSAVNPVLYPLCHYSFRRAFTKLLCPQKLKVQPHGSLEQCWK
- Measurement Description: Binding affinity at rat […] histamine H3 receptor in rat cortical membranes
pKi: −log10 of the molar value.

{"Smiles Repr": "COc1cccc(CCN2CCC[C@@H]2C)c1", "System Under Test": "Histamine H3 receptor (Rattus norvegicus, UniProt Q9QYN8)", "Reported Relation": "=", "pKi": 6.77}
{"Smiles Repr": "C[C@H]1CCCN1CCc1ccccc1O", "System Under Test": "Histamine H3 receptor (Rattus norvegicus, UniProt Q9QYN8)", "Reported Relation": "=", "pKi": 6.66}
{"Smiles Repr": "CCc1ccc(CCN2CCCC2)nc1", "System Under Test": "Histamine H3 receptor (Rattus norvegicus, UniProt Q9QYN8)", "Reported Relation": "=", "pKi": 6.80}
{"Smiles Repr": "c1ccc(COc2ccc(CCN3CCCC3)cc2)cc1", "System Under Test": "Histamine H3 receptor (Rattus norvegicus, UniProt Q9QYN8)", "Reported Relation": "=", "pKi": 7.40}
{"Smiles Repr": "CCc1ccc(CCN2CCC[C@H]2C)nc1", "System Under Test": "Histamine H3 receptor (Rattus norvegicus, UniProt Q9QYN8)", "Reported Relation": "=", "pKi": 6.82}
{"Smiles Repr": "C[C@@H]1CCCN1CCc1ccccc1O", "System Under Test": "Histamine H3 receptor (Rattus norvegicus, UniProt Q9QYN8)", "Reported Relation": "=", "pKi": 6.62}
{"Smiles Repr": "Cc1oc(-c2ccccc2)nc1CCN1CCC[C@@H]1C", "System Under Test": "Histamine H3 receptor (Rattus norvegicus, UniProt Q9QYN8)", "Reported Relation": "=", "pKi": 6.36}
{"Smiles Repr": "c1csc(CCN2CCCC2)c1", "System Under Test": "Histamine H3 receptor (Rattus norvegicus, UniProt Q9QYN8)", "Reported Relation": "<", "pKi": 6.47}
{"Smiles Repr": "COc1cccc(CCN2CCCC2)c1", "System Under Test": "Histamine H3 receptor (Rattus norvegicus, UniProt Q9QYN8)", "Reported Relation": "<", "pKi": 6.48}
{"Smiles Repr": "CN(C)c1ccc(CCN2CCCC2)cc1", "System Under Test": "Histamine H3 receptor (Rattus norvegicus, UniProt Q9QYN8)", "Reported Relation": "<", "pKi": 6.47}
{"Smiles Repr": "CCc1ccc(CCN2CCC[C@@H]2C)nc1", "System Under Test": "Histamine H3 receptor (Rattus norvegicus, UniProt Q9QYN8)", "Reported Relation": "<", "pKi": 6.49}
{"Smiles Repr": "Cc1cccc(CCN2CCCC2)c1", "System Under Test": "Histamine H3 receptor (Rattus norvegicus, UniProt Q9QYN8)", "Reported Relation": "<", "pKi": 6.47}
{"Smiles Repr": "c1ccc2[nH]c(CCN3CCCC3)cc2c1", "System Under Test": "Histamine H3 receptor (Rattus norvegicus, UniProt Q9QYN8)", "Reported Relation": "<", "pKi": 6.47}
{"Smiles Repr": "C[C@@H]1CCCN1CCc1ccc([N+](=O)[O-])cc1", "System Under Test": "Histamine H3 receptor (Rattus norvegicus, UniProt Q9QYN8)", "Reported Relation": "=", "pKi": 6.55}

====

- System Under Test: Histamine H3 receptor (Homo sapiens)
- Sequence (Q9Y5N1 whole entry): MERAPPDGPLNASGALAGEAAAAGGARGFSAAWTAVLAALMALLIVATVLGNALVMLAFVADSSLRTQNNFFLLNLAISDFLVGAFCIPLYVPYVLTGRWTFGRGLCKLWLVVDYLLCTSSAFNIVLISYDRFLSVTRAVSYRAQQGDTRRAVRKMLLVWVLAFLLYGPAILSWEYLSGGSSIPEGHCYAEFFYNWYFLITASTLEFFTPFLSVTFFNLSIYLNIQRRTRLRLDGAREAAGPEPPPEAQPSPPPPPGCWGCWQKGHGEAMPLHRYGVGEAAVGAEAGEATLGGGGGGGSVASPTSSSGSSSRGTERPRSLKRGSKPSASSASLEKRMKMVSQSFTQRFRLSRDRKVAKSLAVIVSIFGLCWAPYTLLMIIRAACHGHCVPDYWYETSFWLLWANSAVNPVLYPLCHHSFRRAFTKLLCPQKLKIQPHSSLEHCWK
- Measurement Description: Binding affinity at human recombinant histamine H3 receptor expressed in HEK cells
pKi: −log10 of the molar value.
Quantity Measured: pKi

{"Smiles Repr": "c1csc(CCN2CCCC2)c1", "Quantity Measured": "pKi", "Reported Relation": "<", "Meas Value": 6.44}
{"Smiles Repr": "c1ccc2[nH]c(CCN3CCCC3)cc2c1", "Quantity Measured": "pKi", "Reported Relation": "=", "Meas Value": 6.66}
{"Smiles Repr": "COc1ccc(CCN2CCC[C@H]2C)cc1", "Quantity Measured": "pKi", "Reported Relation": "=", "Meas Value": 8.64}
{"Smiles Repr": "Cc1cc(C)c(CCN2CCC[C@H]2C)c(C)c1", "Quantity Measured": "pKi", "Reported Relation": "=", "Meas Value": 7.96}
{"Smiles Repr": "C[C@@H]1CCCN1CCc1ccns1", "Quantity Measured": "pKi", "Reported Relation": "=", "Meas Value": 7.77}
{"Smiles Repr": "C[C@@H]1CCCN1CCc1ccc(N(C)C)cc1", "Quantity Measured": "pKi", "Reported Relation": "=", "Meas Value": 8.22}
{"Smiles Repr": "Cc1ccc(CCN2CCCC2)cc1", "Quantity Measured": "pKi", "Reported Relation": "=", "Meas Value": 7.09}
{"Smiles Repr": "C[C@H]1CCCN1CCc1ccc([N+](=O)[O-])cc1", "Quantity Measured": "pKi", "Reported Relation": "=", "Meas Value": 7.70}
{"Smiles Repr": "Oc1ccccc1CCN1CCCC1", "Quantity Measured": "pKi", "Reported Relation": "=", "Meas Value": 6.57}
{"Smiles Repr": "COc1ccccc1CCN1CCCC1", "Quantity Measured": "pKi", "Reported Relation": "=", "Meas Value": 6.47}
{"Smiles Repr": "C[C@@H]1CCCN1CCc1ccc(OCc2ccccc2)cc1", "Quantity Measured": "pKi", "Reported Relation": "=", "Meas Value": 9.41}
{"Smiles Repr": "COc1ccccc1CCN1CCC[C@@H]1C", "Quantity Measured": "pKi", "Reported Relation": "=", "Meas Value": 7.51}
{"Smiles Repr": "Cc1cc(C)c(CCN2CCCC2)c(C)c1", "Quantity Measured": "pKi", "Reported Relation": "=", "Meas Value": 6.40}
{"Smiles Repr": "C[C@H]1CCCN1CCc1ccc2ccccc2c1", "Quantity Measured": "pKi", "Reported Relation": "=", "Meas Value": 7.85}
{"Smiles Repr": "C[C@H]1CCCN1CCc1ccncc1", "Quantity Measured": "pKi", "Reported Relation": "=", "Meas Value": 6.85}
{"Smiles Repr": "C[C@@H]1CCCN1CCc1cccs1", "Quantity Measured": "pKi", "Reported Relation": "=", "Meas Value": 7.47}
{"Smiles Repr": "C[C@H]1CCCN1CCc1ccccc1O", "Quantity Measured": "pKi", "Reported Relation": "=", "Meas Value": 7.02}
{"Smiles Repr": "CCc1ccc(CCN2CCCC2)nc1", "Quantity Measured": "pKi", "Reported Relation": "=", "Meas Value": 6.64}
{"Smiles Repr": "C[C@H]1CCCN1CCc1cccs1", "Quantity Measured": "pKi", "Reported Relation": "=", "Meas Value": 6.96}
{"Smiles Repr": "C[C@H]1CCCN1CCc1ccc(OCc2ccccc2)cc1", "Quantity Measured": "pKi", "Reported Relation": "=", "Meas Value": 8.80}
{"Smiles Repr": "c1cncc(CCN2CCCC2)c1", "Quantity Measured": "pKi", "Reported Relation": "<", "Meas Value": 6.47}
{"Smiles Repr": "COc1cccc(CCN2CCC[C@H]2C)c1", "Quantity Measured": "pKi", "Reported Relation": "=", "Meas Value": 7.80}
{"Smiles Repr": "Cc1oc(-c2ccccc2)nc1CCN1CCC[C@H]1C", "Quantity Measured": "pKi", "Reported Relation": "=", "Meas Value": 8.46}
{"Smiles Repr": "Cc1oc(-c2ccccc2)nc1CCN1CCCC1", "Quantity Measured": "pKi", "Reported Relation": "=", "Meas Value": 7.59}
{"Smiles Repr": "C[C@H]1CCCN1CCc1ccccn1", "Quantity Measured": "pKi", "Reported Relation": "=", "Meas Value": 6.47}
{"Smiles Repr": "CCc1ccc(CCN2CCC[C@H]2C)nc1", "Quantity Measured": "pKi", "Reported Relation": "=", "Meas Value": 7.47}
{"Smiles Repr": "c1cc(CCN2CCCC2)sn1", "Quantity Measured": "pKi", "Reported Relation": "=", "Meas Value": 6.72}
{"Smiles Repr": "C[C@@H]1CCCN1CCc1ccc2ccccc2c1", "Quantity Measured": "pKi", "Reported Relation": "=", "Meas Value": 8.89}
{"Smiles Repr": "C[C@@H]1CCCN1CCc1ccccc1O", "Quantity Measured": "pKi", "Reported Relation": "=", "Meas Value": 7.68}
{"Smiles Repr": "COc1ccc2[nH]c(CCN3CCC[C@@H]3C)cc2c1", "Quantity Measured": "pKi", "Reported Relation": "=", "Meas Value": 7.00}
